- procedure_summary: in vivo
- Design: species or system SD rats
- condition_summary: rat, iv, 2 mg/kg, T1/2
test_readout: half-life (min)

[[record]]
compound = "CC(C)(C)[C@H](NC(=O)C(F)(F)F)C(=O)N1[C@H]2C[C@@H]([C@H]1C(=O)N[C@H](C#N)C[C@@H]1CCNC1=O)C1(CC1)C2 [Crystal form A]"
test_readout = "half-life"
reported_value = 19.8


* * *

- procedure_summary: in vivo
- Design: species or system SD rats
- condition_summary: rat, iv, 2 mg/kg, Cl
test_readout: clearance (mL/min/kg)

[[record]]
compound = "CC(C)(C)[C@H](NC(=O)C(F)(F)F)C(=O)N1[C@H]2C[C@@H]([C@H]1C(=O)N[C@H](C#N)C[C@@H]1CCNC1=O)C1(CC1)C2 [Crystal form A]"
test_readout = "clearance"
reported_value = 42.4


* * *

- procedure_summary: in vivo
- Set-up: species or system SD rats
- condition_summary: rat, po, 30 mg/kg, AUC0-inf
test_readout: AUC(0-inf) (ng·h/mL)

[[record]]
compound = "CC(C)(C)[C@H](NC(=O)C(F)(F)F)C(=O)N1[C@H]2C[C@@H]([C@H]1C(=O)N[C@H](C#N)C[C@@H]1CCNC1=O)C1(CC1)C2 [Crystal form A]"
test_readout = "AUC(0-inf)"
reported_value = 5980


* * *

- procedure_summary: in vivo
- Parameters: species or system SD rats
- condition_summary: rat, po, 30 mg/kg, T1/2
test_readout: half-life (min)

[[record]]
compound = "CC(C)(C)[C@H](NC(=O)C(F)(F)F)C(=O)N1[C@H]2C[C@@H]([C@H]1C(=O)N[C@H](C#N)C[C@@H]1CCNC1=O)C1(CC1)C2 [Crystal form A]"
unit_spec = "min"
reported_value = 49.6


* * *

- procedure_summary: in vivo
- Set-up: species or system SD rats
- condition_summary: rat, iv, 2 mg/kg, AUC0-inf
test_readout: AUC(0-inf) (ng·h/mL)

[[record]]
molecule = "CC(C)(C)[C@H](NC(=O)C(F)(F)F)C(=O)N1[C@H]2C[C@@H]([C@H]1C(=O)N[C@H](C#N)C[C@@H]1CCNC1=O)C1(CC1)C2 [Crystal form A]"
reported_value = 804


* * *

- procedure_summary: cytotoxicity experiment (same conditions, without virus infection)
- Assay type: cell-based
- condition_summary: human; MRC5 cells, 5 days, no virus
test_readout: CC50 at 120 h

[[record]]
smiles_code = "CC(C)(C)[C@H](NC(=O)C(F)(F)F)C(=O)N1[C@H]2C[C@@H]([C@H]1C(=O)N[C@H](C#N)C[C@@H]1CCNC1=O)C1(CC1)C2"
reported_value = "> 10 µM"


* * *

- procedure_summary: in vivo
- Set-up: species or system SD rats
- condition_summary: rat, po, 30 mg/kg, AUC0-last
test_readout: AUC(0-t) (ng·h/mL)

[[record]]
compound = "CC(C)(C)[C@H](NC(=O)C(F)(F)F)C(=O)N1[C@H]2C[C@@H]([C@H]1C(=O)N[C@H](C#N)C[C@@H]1CCNC1=O)C1(CC1)C2 [Crystal form A]"
reported_value = 5960


This collection of values is drawn from patent EP4603497A1.
